Target: DPP-IV enzyme (Bos taurus)
Construct: Bovine plasma containing DPP-IV enzyme was diluted with assay buffer
Sequence (P81425 38-765 limits assumed): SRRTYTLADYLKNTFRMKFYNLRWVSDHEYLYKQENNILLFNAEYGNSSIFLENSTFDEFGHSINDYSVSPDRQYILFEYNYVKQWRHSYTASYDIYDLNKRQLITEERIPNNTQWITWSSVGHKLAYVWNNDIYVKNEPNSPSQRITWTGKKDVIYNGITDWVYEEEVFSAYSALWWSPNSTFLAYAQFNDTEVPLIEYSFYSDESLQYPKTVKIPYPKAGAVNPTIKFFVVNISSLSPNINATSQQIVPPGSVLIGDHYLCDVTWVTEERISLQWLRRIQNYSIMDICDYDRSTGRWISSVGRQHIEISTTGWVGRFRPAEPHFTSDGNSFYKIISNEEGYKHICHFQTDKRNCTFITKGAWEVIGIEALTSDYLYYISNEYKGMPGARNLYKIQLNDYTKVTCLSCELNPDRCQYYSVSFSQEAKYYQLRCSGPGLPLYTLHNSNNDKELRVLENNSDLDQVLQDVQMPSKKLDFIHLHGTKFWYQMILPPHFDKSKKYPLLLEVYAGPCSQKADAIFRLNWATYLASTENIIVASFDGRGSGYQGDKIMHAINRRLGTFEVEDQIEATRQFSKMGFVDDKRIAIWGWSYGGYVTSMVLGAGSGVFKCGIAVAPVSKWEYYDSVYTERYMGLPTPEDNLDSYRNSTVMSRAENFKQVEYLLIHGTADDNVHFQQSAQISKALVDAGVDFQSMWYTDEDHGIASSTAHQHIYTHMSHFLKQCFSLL
Experiment: In Vitro DPP-IV Inhibitory Effect Measurement Test (1), bovine plasma
Conditions: substrate Glycyl-L-Proline 4-Methyl-Coumaryl-7-Amide, Table 1
Where a name gives a salt, the structure may show the parent alone.
Below is a list of entries, each paired with its recorded IC50 value.

| Compound | IC50 |
| --- | --- |
| Cn1c(C#N)cc2nc(N3CCC[C@@H](N)C3)n(Cc3ccccc3Cl)c2c1=O [Example 2, hydrochloride] | 11 nM |
| N[C@@H]1CCCN(c2nc3cc(C(=O)O)[nH]c(=O)c3n2Cc2ccccc2Cl)C1 | 5 nM |
| N[C@@H]1CCCN(c2nc3ccn(-c4cccc(F)c4)c(=O)c3n2Cc2ccccc2Cl)C1 | 203 nM |
| COc1cccc(CC(=O)c2cc3nc(N4CCC[C@@H](N)C4)n(Cc4ccccc4Cl)c3c(=O)n2C)c1 | 112 nM |

* * *

Target: DPP-IV enzyme (Homo sapiens, UniProt P27487)
Construct: Human serum containing DPP-IV enzyme was used in an experiment after being diluted with assay buffer
Sequence (P27487 39-766 limits assumed): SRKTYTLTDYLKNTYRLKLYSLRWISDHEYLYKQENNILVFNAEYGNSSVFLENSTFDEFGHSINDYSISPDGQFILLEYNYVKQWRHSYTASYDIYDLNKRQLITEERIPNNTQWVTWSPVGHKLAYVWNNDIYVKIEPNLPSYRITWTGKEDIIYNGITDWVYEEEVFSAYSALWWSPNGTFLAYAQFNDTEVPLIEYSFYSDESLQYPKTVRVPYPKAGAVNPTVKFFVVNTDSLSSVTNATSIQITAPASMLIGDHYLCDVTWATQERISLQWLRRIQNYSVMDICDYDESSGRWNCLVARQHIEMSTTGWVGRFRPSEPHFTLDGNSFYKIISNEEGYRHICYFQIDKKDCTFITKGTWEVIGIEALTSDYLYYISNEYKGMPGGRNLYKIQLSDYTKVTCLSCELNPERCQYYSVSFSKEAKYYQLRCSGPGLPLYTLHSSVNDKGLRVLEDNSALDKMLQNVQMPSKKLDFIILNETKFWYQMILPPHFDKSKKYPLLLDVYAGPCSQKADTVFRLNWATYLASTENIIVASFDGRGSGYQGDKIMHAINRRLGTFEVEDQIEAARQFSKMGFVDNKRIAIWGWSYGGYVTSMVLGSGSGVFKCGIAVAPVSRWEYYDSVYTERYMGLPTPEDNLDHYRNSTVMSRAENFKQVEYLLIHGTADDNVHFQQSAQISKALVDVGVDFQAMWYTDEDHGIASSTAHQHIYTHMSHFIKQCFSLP
Assay: In Vitro DPP-IV Inhibitory Effect Measurement Test (2), human serum
Details: DPP-IV in human serum (diluted 10-fold); substrate Glycyl-L-Proline 4-Methyl-Coumaryl-7-Amide 100 μM; Table 2
Structures can show the parent of a compound that is named as a salt.
Below is a list of entries, each paired with its recorded IC50 value.

| Compound | Target Desc | IC50 [nM] |
| --- | --- | --- |
| Cn1c(=O)c2c(nc(N3CCC[C@@H](N)C3)n2Cc2ccccc2Cl)c2cc3c(cc21)C(=O)OC3 [Example 90, hydrochloride] | DPP-IV enzyme (Homo sapiens, UniProt P27487) | 11 |
| COC(=O)c1c2c(nn1Cc1ccc(OC)cc1)c1nc(N3CCC[C@@H](N)C3)n(Cc3ccccc3Cl)c1c(=O)n2C [Example 94, hydrochloride] | DPP-IV enzyme (Homo sapiens, UniProt P27487) | 42 |
| N[C@@H]1CCCN(c2nc3c4cc(C(=O)O)ccc4[nH]c(=O)c3n2Cc2ccccc2Cl)C1 [Example 48, hydrochloride] | DPP-IV enzyme (Homo sapiens, UniProt P27487) | 45 |
| Cn1c(=O)c2c(nc(N3CCC[C@@H](N)C3)n2Cc2ccccc2Cl)c2c(C(=O)O)c(F)ccc21 [Example 97, hydrochloride] | DPP-IV enzyme (Homo sapiens, UniProt P27487) | 14 |
| Cn1c(=O)c2c(nc(N3CCC[C@@H](N)C3)n2Cc2ccccc2Cl)c2csc(C(=O)O)c21 [Example 102, hydrochloride] | DPP-IV enzyme (Homo sapiens, UniProt P27487) | 12 |
